- ASSAYED SYSTEM: T1, HLA-A*02:01 (human)
- T1 construct: MHC class I monomer made peptide-receptive by UV cleavage of a UV-sensitive ligand; also called peptide-receptive MHC molecules
- METHOD DESCRIPTION: UV-ligand exchange ELISA (anti-β2m), peptide exchange yield grade
MEASUREMENT LABEL: peptide exchange yield

Examples with their reported peptide exchange yield follow.
                                     binder  recorded_result
0  GLHNVVYGI (also called GLHNWYGI) [peptide GLHNVVYGI (SEQ ID NO: 187)]        50 to 75%
1  RTLDKVLEV [peptide RTLDKVLEV (SEQ ID NO: 176)]        20 to 50%
2  GLSSAYGGL [peptide GLSSAYGGL (SEQ ID NO: 30)]        10 to 20%
3  SLAADQLLKL [peptide SLAADQLLKL (SEQ ID NO: 79)]        20 to 50%
4  TLTELRAFL [peptide TLTELRAFL (SEQ ID NO: 147)]            ≥ 75%
5  LLLEVVKQV (also called LLLEVVKQV) [peptide LLLEWKQV (SEQ ID NO: 145)]        50 to 75%
6  LLTDNVVKL [peptide LLTDNWKL (SEQ ID NO: 59)]        50 to 75%

Next binder, please.
Supply measured peptide exchange yield of GLFAGLGGAGA [peptide GLFAGLGGAGA (SEQ ID NO: 37)] in your reply.
50 to 75%
